tested on: TK-10; assay: NCI tumour cell line growth inhibition, 48 h
Activity calls are given as the source filed them. Rule as the data show it: active = GI50 up to about 1.1 µM and inactive = higher.
Thanks in advance; please answer with one of these: TRUE (active), FALSE (inactive)

Solved cases (5 shown):
- molecule: "C[C@]12CC[C@@H]3c4ccc(O)cc4CC[C@H]3[C@@H]1C/C(=C\\c1ccc(C#N)cc1)C2=O"
  class: "FALSE"
- molecule: "CCOC(=O)CN1C(=O)c2ccc(NC(=O)C(=O)O)cc2S1(=O)=O"
  class: "FALSE"
- molecule: "COC(=O)/C=c1/c2ccccc2n2nc3ccccc3c12"
  class: "FALSE"
- molecule: "CC(C)CC(NC(O)[BH2-][N+](C)(C)C)C(=O)NC(Cc1ccccc1)C(=O)N[C@H]1c2ccsc2/C(=N/O)[C@H]1O (some centres not stated)"
  class: "FALSE"
- molecule: "CN(C)CCC(=O)N1CCc2c([nH]c3ccccc23)C1c1cccnc1 (configuration not stated)"
  class: "FALSE"

q: Just curious, what result did OC1[C@@H]2[C@@H](O)CCCN2C[C@@H](O)[C@H]1O (some centres not stated) get here?
a: FALSE

q: Just curious, what result did Cc1ccc2c3ccc4c(c3n(C)c2c1)C(=O)C=CC4=O get here?
a: FALSE

q: Just curious, what result did COC(=O)c1c(C)cccc1C1CN=NC12Cc1cc(C)cc(C)c1C2=O (configuration not stated) get here?
a: FALSE

q: Just curious, what result did COc1cccc(-c2nnc3c(-c4ccccc4)nc4ccccc4n23)c1 get here?
a: FALSE

q: Just curious, what result did CC1=Nc2ccccc2OC(C)=C1/N=N/c1ccc2[nH]c(C)nc2c1 get here?
a: FALSE

q: Just curious, what result did CC(C)N(C(=O)C12C3C4C1C1C2C3C41C(=O)O)C(C)C (configuration not stated) get here?
a: FALSE

q: Just curious, what result did Cc1cc2c(cc1C)[n+]([O-])c(C(=O)C/C(=N/NC(=O)CC#N)C(=O)Nc1ccccc1C(F)(F)F)c(C)[n+]2[O-] get here?
a: FALSE

q: Just curious, what result did c1ccc(/C(=N\Nc2nc3ccccc3s2)c2ccccn2)cc1 get here?
a: FALSE

q: Just curious, what result did COc1cc(/C=C(\C#N)C(=O)c2ccccc2)ccc1OCc1ccccc1 get here?
a: FALSE

q: Just curious, what result did O=c1[nH]c(=O)n(COCCO)c2ccsc12 get here?
a: FALSE

q: Just curious, what result did O=C(/C=C1\N=C(c2ccccc2)N(c2ccc3c(c2)Sc2cc(N4C(=O)/C(=C/C(=O)/C=C/c5ccccc5)N=C4c4ccccc4)ccc2N3)C1=O)/C=C/c1ccccc1 get here?
a: FALSE

q: Just curious, what result did COC(=O)c1cc2ccc(O)c(O)c2cn1 get here?
a: FALSE

q: Just curious, what result did O=C1NC(=O)C(F)(n2cc(F)c(=O)[nH]c2=O)C(O)N1 (configuration not stated) get here?
a: FALSE

q: Just curious, what result did Cc1ccc2[nH]c3[nH]c(=O)[nH]c(=O)c3c2c1 get here?
a: FALSE

q: Just curious, what result did Cc1ccc(C(=O)OC(C)C)cc1/N=N/N(C)C get here?
a: FALSE

q: Just curious, what result did COc1cc(OC)c2c(c1OC)OCC(Cc1ccc(O)cc1)C2=O (configuration not stated) get here?
a: FALSE

q: Just curious, what result did Cc1nn(C(=O)Cc2ccccc2)c2c1C(c1ccccc1[N+](=O)[O-])SC(=N)N2 (configuration not stated) get here?
a: FALSE

q: Just curious, what result did N#C[C@H](c1nc2ccccc2[nH]1)c1nc2ccccc2nc1Cl get here?
a: FALSE

q: Just curious, what result did NC(CCP(=O)(O)CCC1C=CC=CC1)C(=O)O (configuration not stated) get here?
a: FALSE

q: Just curious, what result did O=C(c1ccccc1)N1CCC(CC2(c3cc4ccccc4[nH]3)OCCO2)CC1 get here?
a: FALSE

q: Just curious, what result did CC(=O)NC1(C)C(C)C2CC1C(C)C2(C)C (configuration not stated) get here?
a: FALSE

q: Just curious, what result did Cc1nc(Nc2ccccc2)sc1C(=O)NNc1ccc([N+](=O)[O-])cc1[N+](=O)[O-] get here?
a: FALSE

q: Just curious, what result did O=C(Nc1cccc2nsnc12)c1cc2c(cc1Cl)Sc1nccn1S2(=O)=O get here?
a: FALSE

q: Just curious, what result did CC(=O)N(CN1C(=O)CCC1C(=O)O)c1cccc(O)c1 (configuration not stated) get here?
a: FALSE

###

tested on: HOP-18; test: NCI tumour cell line growth inhibition, 48 h
The source made the active and inactive calls. No stated cut-off is given here; in the data, active = GI50 up to about 1.1 µM and inactive = higher.
Listing of recorded GI50 by entry.

- compound: "CC1=C(C(=O)Nc2ccccc2C)C(/C=C/c2ccccc2)C(C(=O)Nc2ccccc2C)=C(C)N1"
  GI50: "> 100 µM (inactive)"
- compound: "Nc1nc(CCC(=O)Nc2cccc(C(F)(F)F)c2)cc(-c2cccc3ccccc23)n1"
  GI50: "> 100 µM (inactive)"
- compound: "O=c1[c-](-c2ccccc2)[se]c(-c2ccccc2)[n+]1-c1ccccc1"
  GI50: "11.5 µM (inactive)"
- compound: "CC(=O)c1cccc(N2COC(C)(C)c3nc4ccccc4n3C2)c1"
  GI50: "> 100 µM (inactive)"
- compound: "Cc1cc2c(cc1C)[n+]([O-])c(C(=O)C/C(=N/NC(=O)CC#N)C(=O)Nc1ccccc1C(F)(F)F)c(C)[n+]2[O-]"
  GI50: "> 100 µM (inactive)"

q: Identify measured GI50 obtained with HOP-18 for CSc1nc(CO)c(CO)n1C .
a: > 100 µM (inactive)

q: Identify measured GI50 obtained with HOP-18 for C=C(CN(C)C)C(=O)c1ccc(Oc2ccccc2)cc1 .
a: 6.87 µM (inactive)

q: Identify measured GI50 obtained with HOP-18 for CC1(C)CCC[C@@]2(C)C1CCC1(C)C(CCc3ccoc3)/C(=C/OS(=O)(=O)O)CCC12 (some centres undefined) .
a: > 100 µM (inactive)

q: Identify measured GI50 obtained with HOP-18 for CCCc1c(C(=O)OCC)[nH]c(C(=O)CCC(=O)c2[nH]c(C(=O)OCC)c(CCC)c2C(=O)OCC)c1C(=O)OCC .
a: > 100 µM (inactive)

###

test system: LOX IMVI; assay: NCI tumour cell line growth inhibition, 48 h
Calls of active or inactive are those of the source. No stated cut-off is given here; in the data, active = GI50 up to about 1.1 µM and inactive = higher.
Thanks in advance; please answer with one of these: yes (active), no (inactive)

Solved cases (10 shown):
- compound: "COC(=O)Cc1c([C@H]2[C@H](CC(=O)OC)c3ccccc3N2C(C)=O)[nH]c2ccccc12"
  class: "no"
- compound: "COc1cc(C2c3cc4c(cc3[C@@H](Nc3ccc(C(=O)O)cc3)C3COC(=O)[C@H]23)OCO4)cc(OC)c1O (stereo partly specified)"
  class: "no"
- compound: "CC1=Nc2ccccc2OC(C)=C1/N=N/c1ccc2[nH]c(C)nc2c1"
  class: "no"
- compound: "O=C(Nc1cccc2nsnc12)c1cc2c(cc1Cl)Sc1nccn1S2(=O)=O"
  class: "no"
- compound: "COC(=O)c1ccc(NCc2cc(O)ccc2O)cc1"
  class: "no"
- compound: "O=c1[nH]c(=O)n(COCCO)c2ccsc12"
  class: "no"
- compound: "Oc1ccc(/C=C/c2ccc3cccc(O)c3n2)cc1O"
  class: "no"
- compound: "Cc1cc(C)c(/N=N/c2c(O)c(S(=O)(=O)O)cc3cc(S(=O)(=O)O)ccc23)cc1C"
  class: "no"
- compound: "BrCCC[P+](c1ccccc1)(c1ccccc1)c1ccccc1"
  class: "yes"
- compound: "COc1c(C)c2c(c(C)c1Cl)Oc1c(C=O)c(O)c(Cl)c(C)c1C(=O)O2"
  class: "no"

q: Just curious, what result did N=C1C(O)C2(I)c3ccccc3N3C(=N)C(O)C4c5ccccc5N1C4C32 (stereo unspecified) get here?
a: no

q: Just curious, what result did COCOc1cc(OC)ccc1C=O get here?
a: no

q: Just curious, what result did COC(=O)C(C(=O)C(=O)Nc1ccc(C)cc1)c1nc2ccc([N+](=O)[O-])cc2nc1O (stereo unspecified) get here?
a: no

q: Just curious, what result did Cc1cccc2nc3cccc(C(=O)NCCN(C)C)c3nc12 get here?
a: yes

q: Just curious, what result did N/N=C1\C(OC(=O)Nc2cccc(Cl)c2)=Nc2ccccc21 get here?
a: no

q: Just curious, what result did CC(C)CC(NC(O)[BH2-][N+](C)(C)C)C(=O)NC(Cc1ccccc1)C(=O)N[C@H]1c2ccsc2/C(=N/O)[C@H]1O (stereo partly specified) get here?
a: no

q: Just curious, what result did CCCc1cn2c(/C=N/NC(=N)N)c(-c3cccc([N+](=O)[O-])c3)nc2s1 get here?
a: no

q: Just curious, what result did COCC(/N=C\N1CCCc2ccccc2[C@@H]1CCCCl)C(C)(C)C (stereo partly specified) get here?
a: no

q: Just curious, what result did CC(=O)SCCC(NC(=S)Nc1ccccc1)P(=O)(Oc1ccccc1)Oc1ccccc1 (stereo unspecified) get here?
a: no

q: Just curious, what result did CCCC(=O)Nc1cc(/C=C/C(=O)N2CC(CCl)c3c2cc(OC(C)=O)c2[nH]cc(C)c32)n(C)c1 (stereo unspecified) get here?
a: yes

q: Just curious, what result did CC(=O)Nc1ccc(-c2nnc(SCC(=O)Nc3ccccc3Cl)o2)cc1 get here?
a: no
